target: BRD4-BD1 (Homo sapiens (Human)); assay: AlphaLisa bromodomain binding assay, BRD4-BD1; conditions: Table 5; read-out: BRD4 IC50
pIC50: −log10 of the molar value.

[
  {
    "molecule": "CN1CCN(c2ccc(Nc3ncc4ccn(-c5cccc(NS(=O)(=O)C(C)(C)C)c5)c4n3)cc2)CC1 [drawing 73]",
    "tgt": "BRD4-BD1 (Homo sapiens (Human))",
    "pIC50": 6.66
  },
  {
    "molecule": "CN1CCN(c2ccc(Nc3ncc4ccn(-c5cccc(NS(=O)(=O)C6CC6)c5)c4n3)cc2)CC1 [drawing 74]",
    "tgt": "BRD4-BD1 (Homo sapiens (Human))",
    "pIC50": 6.45
  },
  {
    "molecule": "CN(C)C1CCN(c2ccc(Nc3ncc4ccn(-c5cccc(NS(=O)(=O)C(C)(C)C)c5)c4n3)cc2F)CC1 [drawing 76]",
    "tgt": "BRD4-BD1 (Homo sapiens (Human))",
    "pIC50": 6.88
  },
  {
    "molecule": "CN(C)C1CCN(c2ccc(Nc3ncc4ccn(-c5cccc(NS(=O)(=O)C(C)(C)C)c5)c4n3)cc2)CC1 [drawing 75]",
    "tgt": "BRD4-BD1 (Homo sapiens (Human))",
    "pIC50": 6.76
  }
]

###

molecular target: JAK2 (Homo sapiens (Human)); assay: HTRF kinase assay, JAK2; assay type: biochemical; settings: Table 6
Sequence (O60674 whole entry): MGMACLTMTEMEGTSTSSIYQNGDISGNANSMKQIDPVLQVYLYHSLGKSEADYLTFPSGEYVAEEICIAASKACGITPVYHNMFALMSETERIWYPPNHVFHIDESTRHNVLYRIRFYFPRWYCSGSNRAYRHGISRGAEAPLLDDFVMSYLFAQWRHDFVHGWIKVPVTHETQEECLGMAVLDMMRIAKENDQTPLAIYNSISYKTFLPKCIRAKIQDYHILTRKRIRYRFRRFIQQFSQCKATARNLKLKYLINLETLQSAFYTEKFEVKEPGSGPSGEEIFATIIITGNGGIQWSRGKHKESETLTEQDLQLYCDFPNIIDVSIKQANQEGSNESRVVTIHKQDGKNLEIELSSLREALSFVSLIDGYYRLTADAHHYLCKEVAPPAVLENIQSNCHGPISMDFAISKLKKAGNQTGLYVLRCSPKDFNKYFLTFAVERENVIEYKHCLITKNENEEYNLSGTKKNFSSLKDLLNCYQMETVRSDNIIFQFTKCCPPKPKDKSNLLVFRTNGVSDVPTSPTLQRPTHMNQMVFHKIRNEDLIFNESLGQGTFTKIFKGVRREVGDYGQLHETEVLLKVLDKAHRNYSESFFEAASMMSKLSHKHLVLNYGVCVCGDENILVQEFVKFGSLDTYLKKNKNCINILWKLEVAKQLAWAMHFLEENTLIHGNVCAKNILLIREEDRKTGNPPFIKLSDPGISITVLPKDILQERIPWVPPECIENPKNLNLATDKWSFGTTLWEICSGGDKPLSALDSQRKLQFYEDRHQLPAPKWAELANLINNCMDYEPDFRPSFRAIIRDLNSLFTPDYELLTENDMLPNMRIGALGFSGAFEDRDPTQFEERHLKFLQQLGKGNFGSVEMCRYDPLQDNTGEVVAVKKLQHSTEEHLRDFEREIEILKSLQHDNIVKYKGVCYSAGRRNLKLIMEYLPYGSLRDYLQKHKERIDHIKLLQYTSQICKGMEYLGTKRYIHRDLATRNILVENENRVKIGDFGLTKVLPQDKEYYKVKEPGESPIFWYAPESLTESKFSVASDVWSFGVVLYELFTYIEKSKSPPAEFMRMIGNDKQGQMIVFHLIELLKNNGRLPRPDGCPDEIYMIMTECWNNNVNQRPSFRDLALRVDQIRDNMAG
// values below are reported IC50

[
  {
    "molecule": "CC(C)(C)S(=O)(=O)Nc1cccc(-n2ccc3cnc(Nc4ccc(C(=O)N5CCNCC5)c(F)c4)nc32)c1 [drawing 463]",
    "IC50 [nM]": 28
  },
  {
    "molecule": "CN1CCN(c2ccc(Nc3ncc4ccn(-c5ccc(F)c(NS(=O)(=O)C(C)(C)C)c5)c4n3)cc2)CC1 [drawing 295]",
    "IC50 [nM]": 35
  },
  {
    "molecule": "O=C1Cc2c(cccc2-c2ccnc(Nc3ccccc3)n2)N1",
    "IC50 [nM]": 6780
  },
  {
    "molecule": "CC(C)(C)S(=O)(=O)Nc1cccc(-n2ccc3cnc(Nc4cc(F)c5c(c4)CC4CNCCN54)nc32)c1 (stereo not shown)",
    "IC50 [nM]": 6
  }
]

###

molecular target: BRD4-BD1 (Homo sapiens (Human), UniProt O60885); experiment: AlphaLisa bromodomain binding assay, BRD4-BD1; settings: Table 6; read-out: BRD4(1) IC50

[
  {
    "compound": "CC1CNCCC1Nc1nc(Nc2cccc(NS(=O)(=O)C(C)(C)C)c2)c2ccsc2n1 (centres unmarked)",
    "tgt": "BRD4-BD1 (Homo sapiens (Human), UniProt O60885)",
    "outputUnit": "nM",
    "IC50": 1980
  },
  {
    "compound": "CCC1(S(=O)(=O)Nc2cc(-n3ccc4cnc(Nc5ccc(N6CCN(C)CC6)c(F)c5)nc43)ccc2F)CC1",
    "tgt": "BRD4-BD1 (Homo sapiens (Human), UniProt O60885)",
    "outputUnit": "nM",
    "IC50": 1500
  },
  {
    "compound": "O=C(NC1CCNCC1)c1ccc(Nc2ncc3ccn(-c4cccc(NS(=O)(=O)C5CC5)c4)c3n2)cc1",
    "tgt": "BRD4-BD1 (Homo sapiens (Human), UniProt O60885)",
    "outputUnit": "nM",
    "IC50": 2100
  },
  {
    "compound": "CN1CCN(C(=O)Cc2ccc(Nc3ncc4ccn(-c5cccc(NS(=O)(=O)C6CC6)c5)c4n3)cc2)CC1",
    "tgt": "BRD4-BD1 (Homo sapiens (Human), UniProt O60885)",
    "outputUnit": "nM",
    "IC50": 4010
  },
  {
    "compound": "Cc1cnc(Nc2ccc(N3CCN(C)CC3)cc2)nc1-n1ccc2c1CCNC2=O",
    "tgt": "BRD4-BD1 (Homo sapiens (Human), UniProt O60885)",
    "outputUnit": "nM",
    "IC50": 5720
  },
  {
    "compound": "CN1CCN(c2ccc(Nc3ncc4ccn(-c5ccc(NS(=O)(=O)C(C)(C)C)cc5)c4n3)cc2)CC1 [drawing 362]",
    "tgt": "BRD4-BD1 (Homo sapiens (Human), UniProt O60885)",
    "outputUnit": "nM",
    "IC50": 10000
  },
  {
    "compound": "CN1CCN(C(=O)Cc2ccc(Nc3ncc4ccn(-c5ccc(F)c(NS(=O)(=O)C(C)(C)C)c5)c4n3)cc2)CC1",
    "tgt": "BRD4-BD1 (Homo sapiens (Human), UniProt O60885)",
    "outputUnit": "nM",
    "IC50": 643
  },
  {
    "compound": "CC(C)(C)S(=O)(=O)Nc1cccc(-n2ccc3cnc(Nc4ccc(N5CCNCC5)c(F)c4)nc32)c1 [drawing 432]",
    "tgt": "BRD4-BD1 (Homo sapiens (Human), UniProt O60885)",
    "outputUnit": "nM",
    "IC50": 174
  },
  {
    "compound": "CN1C(=O)CCc2cc(Nc3ncc4ccn(-c5cccc(NS(=O)(=O)C(C)(C)C)c5)c4n3)ccc21",
    "tgt": "BRD4-BD1 (Homo sapiens (Human), UniProt O60885)",
    "outputUnit": "nM",
    "IC50": 3200
  },
  {
    "compound": "CNCC1CCN(c2ccc(Nc3ncc4c(n3)N(c3cccc(NS(=O)(=O)C(C)(C)C)c3)CC4)cc2F)CC1",
    "tgt": "BRD4-BD1 (Homo sapiens (Human), UniProt O60885)",
    "outputUnit": "nM",
    "IC50": 580
  },
  {
    "compound": "CC(C)(C)S(=O)(=O)Nc1cc(-n2ccc3cnc(Nc4cc(F)c5c(c4)CC4CNCCN54)nc32)ccc1F (centres unmarked) [drawing 443]",
    "tgt": "BRD4-BD1 (Homo sapiens (Human), UniProt O60885)",
    "outputUnit": "nM",
    "IC50": 79
  },
  {
    "compound": "CC1(C)CN(Cc2ccccc2)CCC1Nc1nc(Nc2cccc(NS(=O)(=O)C(C)(C)C)c2)c2ccsc2n1 (centres unmarked)",
    "tgt": "BRD4-BD1 (Homo sapiens (Human), UniProt O60885)",
    "outputUnit": "nM",
    "IC50": 7500
  },
  {
    "compound": "CN1CCN(c2ccc(Nc3ncc4ccn(-c5ccc6c(c5)N(S(=O)(=O)C(C)(C)C)CC6)c4n3)cc2)CC1",
    "tgt": "BRD4-BD1 (Homo sapiens (Human), UniProt O60885)",
    "outputUnit": "nM",
    "IC50": 1410
  },
  {
    "compound": "CN1CCN(c2ccc(Nc3ncc4ccn(-c5cccc(CNS(=O)(=O)C(C)(C)C)c5)c4n3)cc2)CC1",
    "tgt": "BRD4-BD1 (Homo sapiens (Human), UniProt O60885)",
    "outputUnit": "nM",
    "IC50": 8300
  },
  {
    "compound": "CN1CCN(c2ccc(Nc3nc(Nc4ccc(Cl)c(NS(=O)(=O)C(C)(C)C)c4)c4sccc4n3)cc2)CC1",
    "tgt": "BRD4-BD1 (Homo sapiens (Human), UniProt O60885)",
    "outputUnit": "nM",
    "IC50": 2680
  },
  {
    "compound": "CNC1CCN(c2ccc(Nc3ncc4scc(-c5ccc(F)c(NS(=O)(=O)C(C)(C)C)c5)c4n3)cc2F)CC1 [drawing 458]",
    "tgt": "BRD4-BD1 (Homo sapiens (Human), UniProt O60885)",
    "outputUnit": "nM",
    "IC50": 192
  },
  {
    "compound": "CN(C)C1CCN(c2ccc(Nc3ncc4ccn(-c5cccc(NS(=O)(=O)C(C)(C)C)c5)c4n3)cc2)CC1 [drawing 317]",
    "tgt": "BRD4-BD1 (Homo sapiens (Human), UniProt O60885)",
    "outputUnit": "nM",
    "IC50": 173
  },
  {
    "compound": "CC(C)(C)S(=O)(=O)Nc1cccc(-c2csc3cnc(Nc4ccc5c(c4)CC4CNCCN54)nc23)c1 (centres unmarked)",
    "tgt": "BRD4-BD1 (Homo sapiens (Human), UniProt O60885)",
    "outputUnit": "nM",
    "IC50": 318
  },
  {
    "compound": "CN1CCN2c3c(F)cc(Nc4ncc5ccn(-c6ccc(F)c(NS(=O)(=O)C(C)(C)C)c6)c5n4)cc3CC2C1 (centres unmarked)",
    "tgt": "BRD4-BD1 (Homo sapiens (Human), UniProt O60885)",
    "outputUnit": "nM",
    "IC50": 383
  },
  {
    "compound": "Cc1cnc(Nc2ccc(N3CCN(C)CC3)cc2)nc1Nc1cccc(NS(=O)(=O)C(C)(C)C)c1 [drawing 271]",
    "tgt": "BRD4-BD1 (Homo sapiens (Human), UniProt O60885)",
    "outputUnit": "nM",
    "IC50": 220
  },
  {
    "compound": "CN1CCN(c2ccc(Nc3ncc4ccn(-c5ccc(Cl)c(NS(=O)(=O)C6CC6)c5)c4n3)cc2)CC1",
    "tgt": "BRD4-BD1 (Homo sapiens (Human), UniProt O60885)",
    "outputUnit": "nM",
    "IC50": 1700
  },
  {
    "compound": "Cc1noc(C)c1-c1cccc(-n2ccc3cnc(Nc4ccc(N5CCN(C)CC5)cc4)nc32)c1 [drawing 285]",
    "tgt": "BRD4-BD1 (Homo sapiens (Human), UniProt O60885)",
    "outputUnit": "nM",
    "IC50": 2330
  },
  {
    "compound": "CC(C)(C)S(=O)(=O)Nc1cc(-n2ccc3cnc(Nc4ccc(N5CCNCC5)c(F)c4)nc32)ccc1F [drawing 430]",
    "tgt": "BRD4-BD1 (Homo sapiens (Human), UniProt O60885)",
    "outputUnit": "nM",
    "IC50": 125
  },
  {
    "compound": "CC(C)(C)S(=O)(=O)Nc1cccc(-n2ccc3cnc(Nc4ccc(C(=O)N5CCNCC5)c(F)c4)nc32)c1 [drawing 462]",
    "tgt": "BRD4-BD1 (Homo sapiens (Human), UniProt O60885)",
    "outputUnit": "nM",
    "IC50": 125
  },
  {
    "compound": "CN1CCC(Nc2nc(Nc3cccc(N(C)S(=O)(=O)C(C)(C)C)c3)c3ccsc3n2)CC1",
    "tgt": "BRD4-BD1 (Homo sapiens (Human), UniProt O60885)",
    "outputUnit": "nM",
    "IC50": 940
  },
  {
    "compound": "CC(C)(C)S(=O)(=O)Nc1cccc(-n2ccc3cnc(Nc4ccc5c(c4)CCN4CCNCC54)nc32)c1 (centres unmarked)",
    "tgt": "BRD4-BD1 (Homo sapiens (Human), UniProt O60885)",
    "outputUnit": "nM",
    "IC50": 750
  },
  {
    "compound": "CC(C)(C)S(=O)(=O)N1CCc2ccc(Nc3nc(NC4CCNC4)nc4sccc34)cc21 (centres unmarked) [drawing 217]",
    "tgt": "BRD4-BD1 (Homo sapiens (Human), UniProt O60885)",
    "outputUnit": "nM",
    "IC50": 2750
  },
  {
    "compound": "Cc1cnc(Nc2ccc(N3CCN(C)CC3)cc2)nc1Nc1cccc(NS(=O)(=O)C(C)(C)C)c1 [drawing 205]",
    "tgt": "BRD4-BD1 (Homo sapiens (Human), UniProt O60885)",
    "outputUnit": "nM",
    "IC50": 210
  },
  {
    "compound": "CN1CCN(c2ccc(Nc3nc(Nc4cccc(NS(=O)(=O)C(C)(C)C)c4)c4ncsc4n3)cc2)CC1",
    "tgt": "BRD4-BD1 (Homo sapiens (Human), UniProt O60885)",
    "outputUnit": "nM",
    "IC50": 1540
  },
  {
    "compound": "CC(C)(C)S(=O)(=O)Nc1cccc(Nc2nc(NC3CCNCC3)nc3[nH]ccc23)c1",
    "tgt": "BRD4-BD1 (Homo sapiens (Human), UniProt O60885)",
    "outputUnit": "nM",
    "IC50": 10000
  },
  {
    "compound": "CC(C)(C)S(=O)(=O)Nc1cccc(-n2ccc3cnc(Nc4ccc(C5CCNCC5)cc4)nc32)c1",
    "tgt": "BRD4-BD1 (Homo sapiens (Human), UniProt O60885)",
    "outputUnit": "nM",
    "IC50": 676
  },
  {
    "compound": "CNc1nc(NC2CCNCC2)nc2c1ccn2-c1cccc(NS(=O)(=O)C(C)(C)C)c1",
    "tgt": "BRD4-BD1 (Homo sapiens (Human), UniProt O60885)",
    "outputUnit": "nM",
    "IC50": 774
  }
]
